Target: T1, PDLoneECDHisCtag (human, UniProt Q9NZQ7 19-238)
T1 construct: Expressed in HEK-293F cells; theoretical molecular weight 29 kDa; also called recombinant human PD-L1 ECD; human PD-L1 (BLI); not shown: C-terminal His-tag; C-tag
T1 sequence (Q9NZQ7 19-238, form in doubt): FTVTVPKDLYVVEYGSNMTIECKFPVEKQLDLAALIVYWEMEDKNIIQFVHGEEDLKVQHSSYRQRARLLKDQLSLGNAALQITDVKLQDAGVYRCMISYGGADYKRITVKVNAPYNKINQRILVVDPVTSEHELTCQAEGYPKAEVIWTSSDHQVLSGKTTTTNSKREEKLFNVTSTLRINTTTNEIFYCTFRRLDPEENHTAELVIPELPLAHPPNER
Assay: BLI cross-block, second antibody on PDLoneECDHisCtag held by immobilised 547; plain = non-blocking
Measured association response of the second antibody values are reported for all entries that follow.
property name: association response of the second antibody (nm)

{"columns": ["binder", "measured value"],
 "data": [
  ["IgG1-516-FEAR (antibody, V domains shown) VH: QVQLQESGPGLVKPSDTLSLTCAVSDYSISSNDWWGWIRQPPGKGLEWIGYIYYSGTGYYNPSLKSRVTISIDTSKNQFSLKLNSVTAVDTAVYYCARTRVGARRAFDYWGQGTLVTVSS VL: SYVLTQPPSVSVAPGQTARITCGGNNIGSKSVHWYQQKPGQAPVLVVYDDSDRPSGIPERFSGSNSGNTATLTISRVEAGDEADYYCQVWDSSSDHVVFGGGTKLTVL", 0.7],
  ["IgG1-632-FEAR (antibody, V domains shown) VH: QVQLVESGGGLVKPGGSLRLSCAASGFTFSDYYMSWIRQAPGKGLEWVSYIGSSSNTIYYADSVKGRFTISRDNAKNSLYLQMNSLRAEDTAVYSCARDRVKYGSPGSLFDYWGQGTLVTVSS VL: SYELTQPPSVSVSPGQTARITCSGDALPKKYAFWYQQKSGQAPVLVIYEDSKRPSGIPERFSGSSSGTMATLTISGAQVEDEADYYCYSTASSGDHRVFGGGTKLTVL", 0.7],
  ["IgG1-511-LC33S-FEAR (antibody, V domains shown) VH: QVQLVQSGSELKKPGASVMVSCKASGYTFTSYVMNWVRQAPGQGLEWMGWINSYTGNPTSAQGFTGRFVFSFDTSVNTAYLQISSLKAEDTAVYYCARGYCTSTSCYLDYWGQGTLVTVSS VL: SYELTQPPSVSVSPGHTARITCSGDALPKKYASWFQQKSGQAPVLVIYEDSKRPSGIPERFSGSTSGTMATLTISGAQVEDETDYYCYSADTSGTHRVFGGGTKLTVLG", 0.7],
  ["IgG1-476-N101Q-LC33S-FEAR (antibody, V domains shown) VH: EVQMLESGGGLVQPGGSLRLSCAASGFTFRSYAMSWVRQAPGKGLEWVSGIGDSGGSTYHADSVKGRFTISRDNSKNTLYLQMNSLRAEDTAVYYCAKLGQSSGWYDHYYYYGMDVWGQGTTVTVSS VL: SYELTQPPSVSVSPGQTASITCSGDKLGNKYVSWFQQKPGQSPVLVIYRDSERPSGIPERFSGSNSGNTATLTISGTQAVDEADFYCQAWDSSTVVFGGGTKLTVL", 0.8]
]}

Hey, just so you know, these numbers are from patent US20200239579A1.
